Source: ChEMBL document CHEMBL1125720

# method_notes: Compound was evaluated for the plasma clearance to investigate its pharmacokinetic profile in dogs after intravenous administration.
# Assay type: ADME, organism-based, Canis lupus familiaris
# assay_setup: dog
experimental_endpoint: clearance (mL/min/kg)
One number for each entry, in mL/min/kg.

Please report the measured clearance for CCO/C(O)=C1\C(COCCO)=NC(C)=C(C(=O)OC)C1c1cccc(Cl)c1Cl (stereo unspecified)
9.6

----------
# Organism: Rattus norvegicus
# method_notes: Evaluated for the negative logarithm of the molar concentration required to block [Ca2+] induced contraction of K+ depolarized rat aorta by 50%.
# Type: functional
Please provide measured pIC50 for the entries that follow.
One number for each entry, as −log10 of the molar value.

For every item below, please supply its pIC50.
1. CCO/C(O)=C1\C(COCC(C)(O)CO)=NC(C)=C(C(=O)OC)C1c1cccc(Cl)c1Cl (centres undefined)
2. CCO/C(O)=C1\C(COCC(C)(C)O)=NC(C)=C(C(=O)OC)C1c1cccc(Cl)c1Cl (centres undefined)

[7.60, 8.20]

For every item below, please supply its pIC50.
1. CCO/C(O)=C1\C(COCC(C)(O)Cn2cncn2)=NC(C)=C(C(=O)OC)C1c1cccc(Cl)c1Cl (centres undefined)
2. CCO/C(O)=C1\C(COCC(C)O)=NC(C)=C(C(=O)OC)C1c1cccc(Cl)c1Cl (centres undefined)
3. CCO/C(O)=C1\C(COCC(C)(O)CNc2ncccn2)=NC(C)=C(C(=O)OC)C1c1cccc(Cl)c1Cl (centres undefined)
4. CCO/C(O)=C1\C(COCC(C)(O)Cc2ccccn2)=NC(C)=C(C(=O)OC)C1c1cccc(Cl)c1Cl (centres undefined)
5. CCCOCC1=C(C(=O)OCC)C(c2cccc(Cl)c2Cl)/C(=C(\O)OC)C(C)=N1 (centres undefined)

1. 7.70
2. 7.80
3. 7.40
4. 7.20
5. 7.50

For every item below, please supply its pIC50.
1. CCO/C(O)=C1\C(COCCO)=NC(C)=C(C(=O)OC)C1c1cccc(Cl)c1Cl (centres undefined)
2. CCO/C(O)=C1\C(COCCOC)=NC(C)=C(C(=O)OC)C1c1cccc(Cl)c1Cl (centres undefined)
3. CCO/C(O)=C1\C(COCC(O)CO)=NC(C)=C(C(=O)OC)C1c1cccc(Cl)c1Cl (centres undefined)
4. CCO/C(O)=C1\C(COCC(C)(O)CN)=NC(C)=C(C(=O)OC)C1c1cccc(Cl)c1Cl (centres undefined)
5. CCO/C(O)=C1\C(COCC(C)(O)c2ccco2)=NC(C)=C(C(=O)OC)C1c1cccc(Cl)c1Cl (centres undefined)
6. CCO/C(O)=C1\C(COCC(C)(O)CSc2ncccn2)=NC(C)=C(C(=O)OC)C1c1cccc(Cl)c1Cl (centres undefined)

8.40
7.50
7.80
6.80
7.80
7.60

Please report the measured pIC50 for CCO/C(O)=C1\C(COCC(C)(O)Cn2ccnc2)=NC(C)=C(C(=O)OC)C1c1cccc(Cl)c1Cl (centres undefined)
7.40
